- Target entity: panel of 442 kinases (Homo sapiens, UniProt P15735)
- Construct: purchased KINOMEscan
- Sequence (P15735 whole entry): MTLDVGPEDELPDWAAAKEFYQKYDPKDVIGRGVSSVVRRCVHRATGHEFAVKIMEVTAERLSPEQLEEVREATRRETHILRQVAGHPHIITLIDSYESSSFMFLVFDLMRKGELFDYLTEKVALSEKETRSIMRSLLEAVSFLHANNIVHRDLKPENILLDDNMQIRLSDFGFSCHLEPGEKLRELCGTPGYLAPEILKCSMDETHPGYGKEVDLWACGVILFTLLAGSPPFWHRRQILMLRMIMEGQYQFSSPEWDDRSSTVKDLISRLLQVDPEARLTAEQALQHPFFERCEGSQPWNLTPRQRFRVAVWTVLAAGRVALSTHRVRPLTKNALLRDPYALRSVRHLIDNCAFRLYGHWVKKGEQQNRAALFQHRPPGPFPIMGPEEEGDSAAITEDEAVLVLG
- Type: binding
- Study conditions: Compound Concentration 10 µM
Measured parameter: KINOMEscan: PHKG2
One number for each entry.

{"Structure as smiles": "COc1cc(C(=O)N2CCC(N3CCN(C)CC3)CC2)ccc1Nc1ncc2c(n1)N(C)c1ccccc1C(=O)N2C", "Measured parameter": "KINOMEscan: PHKG2", "Readout value": 33}
{"Structure as smiles": "CCOc1cc(C(=O)N2CCC(N3CCN(C)CC3)CC2)ccc1Nc1ncc2c(n1)N(C1CCCC1)c1ccccc1C(=O)N2C", "Measured parameter": "KINOMEscan: PHKG2", "Readout value": 90}

Provide each entry's KINOMEscan: PHKG2 from the list below.
1. COc1cc(C(=O)N2CCC(N3CCN(C)CC3)CC2)ccc1Nc1ncc2c(n1)N(C1CCCC1)c1ccccc1C(=O)N2C
2. COc1cc(C(=O)N2CCC(N3CCN(C)CC3)CC2)ccc1Nc1ncc2c(n1)N1CCc3cccc(c31)C(=O)N2C

1. 68
2. 47

* * *

- Target entity: panel of 442 kinases (Homo sapiens)
- Construct: purchased KINOMEscan
- Format: binding
- Study conditions: Compound Concentration 10 µM
- Source text: We assessed the selectivity of members of this scaffold using the KINOMEscan methodology across a near comprehensive panel of 442 kinases [[18,27]].
Would you kindly list KINOMEscan: PIK3CG for each of these molecules?
Give bare numbers.

Provide each entry's KINOMEscan: PIK3CG from the list below.
1. COc1cc(C(=O)N2CCC(N3CCN(C)CC3)CC2)ccc1Nc1ncc2c(n1)N(C)c1ccccc1C(=O)N2C [15 (LRRK2-IN-1)]
2. CCOc1cc(C(=O)N2CCC(N3CCN(C)CC3)CC2)ccc1Nc1ncc2c(n1)N(C1CCCC1)c1ccccc1C(=O)N2C [Compound 26]
3. COc1cc(C(=O)N2CCC(N3CCN(C)CC3)CC2)ccc1Nc1ncc2c(n1)N1CCc3cccc(c31)C(=O)N2C [Compound 24]
4. COc1cc(C(=O)N2CCC(N3CCN(C)CC3)CC2)ccc1Nc1ncc2c(n1)N(C1CCCC1)c1ccccc1C(=O)N2C [Compound 25]

1. 15
2. 82
3. 30
4. 80

* * *

- Target entity: panel of 442 kinases (Homo sapiens)
- Construct: purchased KINOMEscan
- Assay type: binding
- Study conditions: Compound Concentration 10 µM
Measured parameter: KINOMEscan: PRKD1
One number for each entry.

{"Compound": "CCOc1cc(C(=O)N2CCC(N3CCN(C)CC3)CC2)ccc1Nc1ncc2c(n1)N(C1CCCC1)c1ccccc1C(=O)N2C [Compound 26]", "Measured parameter": "KINOMEscan: PRKD1", "Readout value": 100}
{"Compound": "COc1cc(C(=O)N2CCC(N3CCN(C)CC3)CC2)ccc1Nc1ncc2c(n1)N1CCc3cccc(c31)C(=O)N2C [Compound 24]", "Measured parameter": "KINOMEscan: PRKD1", "Readout value": 21}
{"Compound": "COc1cc(C(=O)N2CCC(N3CCN(C)CC3)CC2)ccc1Nc1ncc2c(n1)N(C1CCCC1)c1ccccc1C(=O)N2C [Compound 25]", "Measured parameter": "KINOMEscan: PRKD1", "Readout value": 100}

Reported KINOMEscan: PRKD1 for COc1cc(C(=O)N2CCC(N3CCN(C)CC3)CC2)ccc1Nc1ncc2c(n1)N(C)c1ccccc1C(=O)N2C [15 (LRRK2-IN-1)] was 28
